- protocol: NOD1 signaling inhibitors, primary screen, cell-based, luminescence, uHTS (AID 1578);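 further: HEK-293T reporter cells stimulated with the NOD1 agonist gamma-tri-DAP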
- measurementConditions: NOD1-driven NF-kB luciferase reporter cells, at 4 µM, stronger effect = higher value
The campaign covered roughly 290,000 compounds. About 3,000 (1%) were called active. This is one part of a sample in which actives are shown more often than they occur.
Threshold rule: inhibition greater than or equal to 10% is rule met; below that, rule not met.

| compound | className |
| --- | --- |
| O=C(NCc1ccc2c(c1)OCO2)c1cc2ccccc2oc1=O | rule met |
| COc1cc(/C=N/c2oc(-c3ccccc3)cc2C#N)ccc1O | rule not met |
| CC(NS(=O)(=O)c1ccc2[nH]c(=O)c(=O)[nH]c2c1)C(=O)O (stereo not given) | rule not met |
| CCOC(=O)N1CCN(C(=O)c2ccc(Cn3c(=S)[nH]c4cc(OCC)c(OCC)cc4c3=O)cc2)CC1 | rule met |

-- ask Is it the case that COc1cc(NC(=O)c2ccco2)c(OC)cc1NC(=O)CSc1ncc(-c2ccc(F)cc2)[nH]1 has inhibition reaching or exceeding 10%?
-- reply rule not met

Reference source: PubChem BioAssay AID1578
